Origin of measurements: ChEMBL document CHEMBL1148858

assay procedure: Cytotoxicity against MT4 cells assessed as reduction of cell viability
Format: cell-based
test conditions: human
Measured CC50 of individual entries

Reference set, count: 4
O=c1[nH]c2ccc(Cl)cc2n1Cc1c(F)cccc1F | > 424 µM
Cc1cc(C)cc(S(=O)(=O)n2c(=O)[nH]c3ccc(Cl)cc32)c1 | 39 µM
Cc1cc(C)cc(Cn2c(=O)[nH]c3ccc(Cl)cc32)c1 | 8.9 µM
O=C1Nc2ccc(Cl)cc2[C@@](C#CC2CC2)(C(F)(F)F)O1 | > 6 µM

Find the measured CC50 of `Cc1ccnc2c1NC(=O)c1cccnc1N2C1CC1` and report it.
> 15 µM
